# ASSAY TARGET: furin, P09958;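 further: purified furin at 1:10 enzyme:substrate in 50 mM HEPES pH 7.5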
# Sequence (P09958 whole entry): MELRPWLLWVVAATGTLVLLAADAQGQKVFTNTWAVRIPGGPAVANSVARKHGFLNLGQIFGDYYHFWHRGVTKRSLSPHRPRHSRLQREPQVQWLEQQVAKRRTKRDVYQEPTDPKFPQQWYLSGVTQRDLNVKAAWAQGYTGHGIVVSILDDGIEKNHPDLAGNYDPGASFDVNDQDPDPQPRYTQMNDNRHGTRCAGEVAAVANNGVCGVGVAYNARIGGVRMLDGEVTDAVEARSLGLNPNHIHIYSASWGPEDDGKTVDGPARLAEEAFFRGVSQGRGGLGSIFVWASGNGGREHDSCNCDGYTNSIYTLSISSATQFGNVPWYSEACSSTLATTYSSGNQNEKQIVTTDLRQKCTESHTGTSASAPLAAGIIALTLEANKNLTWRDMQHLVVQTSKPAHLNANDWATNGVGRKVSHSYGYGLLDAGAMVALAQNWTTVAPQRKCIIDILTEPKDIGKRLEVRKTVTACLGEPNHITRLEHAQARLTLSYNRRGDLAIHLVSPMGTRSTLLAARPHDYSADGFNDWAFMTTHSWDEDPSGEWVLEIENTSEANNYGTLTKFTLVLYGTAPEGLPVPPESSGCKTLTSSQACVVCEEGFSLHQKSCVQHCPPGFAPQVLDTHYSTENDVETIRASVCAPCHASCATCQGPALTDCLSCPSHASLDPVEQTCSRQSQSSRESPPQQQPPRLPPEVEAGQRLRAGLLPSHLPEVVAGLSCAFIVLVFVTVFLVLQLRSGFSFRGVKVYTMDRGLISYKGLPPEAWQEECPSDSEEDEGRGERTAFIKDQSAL
# ASSAY INFO: furin cleavage Z-score vs untreated control; higher = more cleavage, active = 3.5 or more, inactive = 1 or less, 8 variable residues between constant flanks
# APPLIED CONDITIONS: 30 min
The list shows a part of the results. The true hit rate is not given.
The sequences listed here are annotated with their furin cleavage Z-score.
Please reply with the number alone, leaving off any unit.

Past entries and their recorded results:
CHAIN | MEASUREMENT
CANHLTPLRDAGNASASA [HC636] | -0.425
CARKRRSTDFAGNASASA [FS-2217] | 9.06
CAGLGRRRRVAGNASASA [FS-1127] | 7.41
CATEPCSGSWAGNASASA [HC1852] | -1.88

query: # furin cleavage Z-score lookup, item CAWTVYHGAGAGNASASA [HC700]
result: 1.31

query: # furin cleavage Z-score lookup, item CARNARIVHLAGNASASA [FS-1755]
result: -0.00636
